Target Under Test: RARβ (Homo sapiens, UniProt P10826)
Construct: expressed in transfected cells; line from Prof; Ballaguer, INSERM 439, Montpellier
Sequence (P10826 183-417 limits assumed): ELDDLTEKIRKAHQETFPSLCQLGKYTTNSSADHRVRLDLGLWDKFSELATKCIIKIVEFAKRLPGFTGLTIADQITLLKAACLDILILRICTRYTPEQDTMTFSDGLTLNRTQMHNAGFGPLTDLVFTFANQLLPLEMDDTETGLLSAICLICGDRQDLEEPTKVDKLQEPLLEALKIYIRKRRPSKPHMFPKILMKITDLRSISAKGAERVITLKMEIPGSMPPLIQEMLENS
Protocol: Transactivation reporter test (luciferase) in HeLa ERE Luc-hRAR cells, RARβ
Assay type: cell-based
Condition Notes: normalized to basal control and maximum efficacy control CD0193 100 nM
Reported Metric: RARβ Efficacy (%)
// note: answer is a bare numeric in %

>>> val("CC(C)(C)c1cc(-c2noc(-c3ccc(C(=O)O)cc3)n2)ccc1O")
110
>>> val("CCOCOc1ccc(-c2noc(-c3ccc(C(=O)O)cc3)n2)cc1C1(C)CCCCC1")
107
>>> val("COc1ccc(-c2cnc(-c3ccc(C(=O)O)cc3)s2)cc1C(C)(C)C")
46

Proceeding to the next compound to report its RARβ Efficacy (%).
# compound CCOCOc1ccc(-c2noc(-c3ccc(C(=O)O)cc3)n2)cc1C(C)(C)C ; its RARβ Efficacy (%) = 95
